- target_entity: Peroxisome proliferator-activated receptor alpha (Homo sapiens, UniProt Q07869)
- Sequence (Q07869 whole entry): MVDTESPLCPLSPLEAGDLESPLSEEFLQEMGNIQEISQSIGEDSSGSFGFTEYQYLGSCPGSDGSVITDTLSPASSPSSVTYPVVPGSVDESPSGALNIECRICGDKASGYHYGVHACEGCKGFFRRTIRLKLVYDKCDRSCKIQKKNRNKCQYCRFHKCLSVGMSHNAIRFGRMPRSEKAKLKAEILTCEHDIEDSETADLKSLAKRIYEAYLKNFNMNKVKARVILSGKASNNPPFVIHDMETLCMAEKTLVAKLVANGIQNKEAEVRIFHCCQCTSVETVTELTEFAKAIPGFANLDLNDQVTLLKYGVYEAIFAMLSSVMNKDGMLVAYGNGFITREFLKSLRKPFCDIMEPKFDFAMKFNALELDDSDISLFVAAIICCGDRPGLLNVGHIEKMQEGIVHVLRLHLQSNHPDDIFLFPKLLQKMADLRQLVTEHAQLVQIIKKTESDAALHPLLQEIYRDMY
- test_name: Agonist activity at human PPARalpha transfected in african green monkey COS7 cells assessed transactivation incubated for 16 hrs by luciferase assay

{"compound_structure_string": "Cc1cc(CN2C(=O)CN(c3ccccc3C(F)(F)F)C2=O)cc(C)c1OC(C)(C)C(=O)O", "qualifying_sign": ">", "EC50 [nM]": 5000}
{"compound_structure_string": "Cc1cc(Cn2ncn(-c3ccc(OC(F)(F)F)cc3)c2=O)cc(C)c1OC(C)(C)C(=O)O", "qualifying_sign": "=", "EC50 [nM]": 7.4}
{"compound_structure_string": "CSc1ccc(N2CC(=O)N(Cc3cc(C)c(OC(C)(C)C(=O)O)c(C)c3)C2=O)cc1", "qualifying_sign": "=", "EC50 [nM]": 2.7}

* * *

- test_name: Stability in human liver microsome assessed as intrinsic clearance at 1 uM for 0 to 45 mins by LC/MS-8050 analysis
- Format: ADME
- measurement_setup: liver microsomes, time 0-45 min, read-out: CLH
quantity: CLint scaled at 1 µM (mL/min/kg)

{"compound_structure_string": "Cc1cc(CN2C(=O)CN(c3ccc(C(F)(F)F)cc3)C2=O)cc(C)c1OC(C)(C)C(=O)O", "quantity": "CLint scaled at 1 µM", "quantitative_readout": 6.24}

* * *

- target_entity: Peroxisome proliferator-activated receptor gamma (Homo sapiens, UniProt P37231)
- Sequence (P37231 whole entry): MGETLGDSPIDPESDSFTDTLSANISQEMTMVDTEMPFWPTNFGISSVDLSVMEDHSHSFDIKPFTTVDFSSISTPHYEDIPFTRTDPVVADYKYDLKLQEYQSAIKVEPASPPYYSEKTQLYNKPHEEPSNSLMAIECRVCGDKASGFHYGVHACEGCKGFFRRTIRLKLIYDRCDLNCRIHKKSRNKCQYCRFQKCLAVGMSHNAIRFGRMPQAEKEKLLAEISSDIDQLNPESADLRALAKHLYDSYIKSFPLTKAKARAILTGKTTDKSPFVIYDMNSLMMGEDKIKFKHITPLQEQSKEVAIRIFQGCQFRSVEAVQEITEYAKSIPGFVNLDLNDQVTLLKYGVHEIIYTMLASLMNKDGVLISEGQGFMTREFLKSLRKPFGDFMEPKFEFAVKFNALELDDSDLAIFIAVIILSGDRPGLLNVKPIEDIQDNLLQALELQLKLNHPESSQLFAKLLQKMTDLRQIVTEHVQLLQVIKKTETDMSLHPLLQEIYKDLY
- test_name: Agonist activity at human PPARgamma transfected in african green monkey COS7 cells assessed transactivation incubated for 16 hrs by luciferase assay
pEC50: −log10 of the molar value.
quantity: pEC50

{"compound": "Cc1cc(N2C(=O)CN(c3ccc(C(F)(F)F)cc3)C2=O)cc(C)c1OC(C)(C)C(=O)O", "result": "< 5.30"}
{"compound": "Cc1cc(CN2C(=O)CN(c3ccc(C(F)(F)F)cc3)C2=O)cc(C)c1OC(C)C(=O)O (stereo not drawn)", "result": "< 5.30"}
{"compound": "Cc1cc(CN2C(=O)CN(c3ccccc3C(F)(F)F)C2=O)cc(C)c1OC(C)(C)C(=O)O", "result": "< 5.30"}
